ASSAY_TARGET: HLA-B*08:01
TEST_DETAILS: IEDB peptide-MHC binding, purified MHC/direct/fluorescence; filed as Kd, often an IC50 or EC50 that approximates it; bounds were set here for any values at or beyond the usual limits of such assays
CONDITION_INFO: source organism: Yersinia pestis CA88-4125
RECORDED_ENDPOINT: Kd (nM)
Answers are plain numbers, in nM.

Measured Kd for this entry "SMKTRTAWF" on HLA-B*08:01: 7

---

ASSAY_TARGET: HLA-A*01:01
TEST_DETAILS: IEDB peptide-MHC binding, purified MHC/competitive/radioactivity; filed as Kd, often an IC50 or EC50 that approximates it; bounds were set here for any values at or beyond the usual limits of such assays
CONDITION_INFO: source organism: Dengue virus 4 Philippines/H241/1956
RECORDED_ENDPOINT: Kd
Your reply should be a number followed by the unit it is expressed in.

Short answer for "ETFSMGLLCL" : Kd was 7.33 µM

---

Provide the recorded pKd for the entries that follow.
ASSAY_TARGET: HLA-A*68:01
TEST_DETAILS: IEDB peptide-MHC binding, purified MHC/competitive/radioactivity; filed as Kd, often an IC50 or EC50 that approximates it; bounds were set here for any values at or beyond the usual limits of such assays
CONDITION_INFO: source organism: Vaccinia virus WR
Numbers only, as −log10 of the molar value.

Answered examples (3):
| RESIDUE_STRING | ASSAY_TARGET | pKd |
| --- | --- | --- |
| YTIERIFNAK | HLA-A*68:01 | 7.99 |
| KFLELKRGIY | HLA-A*68:01 | 4.96 |
| NIERQDYRR | HLA-A*68:01 | 6.92 |

List pKd for every entry below, keeping the order given.
1. ELALTDVEKR
2. ASLKNTISK

1: 6.83; 2: 5.43

List pKd for every entry below, keeping the order given.
1. NFSIIELPY
2. TIERIFNAK
3. NAVYQCRKLR
4. ALEVLMSPCR
5. SVDIETAIR

1: 5.46; 2: 7.70; 3: 6.48; 4: 6.33; 5: 6.73

---

ASSAY_TARGET: HLA-B*45:01
TEST_DETAILS: IEDB peptide-MHC binding, purified MHC/competitive/radioactivity; filed as Kd, often an IC50 or EC50 that approximates it; bounds were set here for any values at or beyond the usual limits of such assays
CONDITION_INFO: source organism: Mammarenavirus machupoense
RECORDED_ENDPOINT: pKd
Numbers only, as −log10 of the molar value.

Short answer for "EEVLDVCPL" : pKd was 5.61

---

ASSAY_TARGET: HLA-A*02:11
TEST_DETAILS: IEDB peptide-MHC binding, purified MHC/direct/fluorescence; filed as Kd, often an IC50 or EC50 that approximates it; bounds were set here for any values at or beyond the usual limits of such assays
CONDITION_INFO: source organism: Reston ebolavirus
RECORDED_ENDPOINT: Kd

Short answer for "RTYSLLNRK" : Kd was ≥ 20 µM

---

ASSAY_TARGET: HLA-B*15:01
TEST_DETAILS: IEDB peptide-MHC binding, purified MHC/direct/fluorescence; filed as Kd, often an IC50 or EC50 that approximates it; bounds were set here for any values at or beyond the usual limits of such assays
CONDITION_INFO: source organism: Influenza A virus (A/New Caledonia/20/1999(H1N1))
RECORDED_ENDPOINT: pKd
Answers are plain numbers, as −log10 of the molar value.

Short answer for "WMACHSAAF" : pKd was 7.74
